Provenance of the data: patent US20250114345A1

Consider the following molecules; for each one, report its DC50.
Assay system: p300 (Homo sapiens)
Construct: host or cells: A549 P300 HiBit cells
Sequence (Q09472 whole entry): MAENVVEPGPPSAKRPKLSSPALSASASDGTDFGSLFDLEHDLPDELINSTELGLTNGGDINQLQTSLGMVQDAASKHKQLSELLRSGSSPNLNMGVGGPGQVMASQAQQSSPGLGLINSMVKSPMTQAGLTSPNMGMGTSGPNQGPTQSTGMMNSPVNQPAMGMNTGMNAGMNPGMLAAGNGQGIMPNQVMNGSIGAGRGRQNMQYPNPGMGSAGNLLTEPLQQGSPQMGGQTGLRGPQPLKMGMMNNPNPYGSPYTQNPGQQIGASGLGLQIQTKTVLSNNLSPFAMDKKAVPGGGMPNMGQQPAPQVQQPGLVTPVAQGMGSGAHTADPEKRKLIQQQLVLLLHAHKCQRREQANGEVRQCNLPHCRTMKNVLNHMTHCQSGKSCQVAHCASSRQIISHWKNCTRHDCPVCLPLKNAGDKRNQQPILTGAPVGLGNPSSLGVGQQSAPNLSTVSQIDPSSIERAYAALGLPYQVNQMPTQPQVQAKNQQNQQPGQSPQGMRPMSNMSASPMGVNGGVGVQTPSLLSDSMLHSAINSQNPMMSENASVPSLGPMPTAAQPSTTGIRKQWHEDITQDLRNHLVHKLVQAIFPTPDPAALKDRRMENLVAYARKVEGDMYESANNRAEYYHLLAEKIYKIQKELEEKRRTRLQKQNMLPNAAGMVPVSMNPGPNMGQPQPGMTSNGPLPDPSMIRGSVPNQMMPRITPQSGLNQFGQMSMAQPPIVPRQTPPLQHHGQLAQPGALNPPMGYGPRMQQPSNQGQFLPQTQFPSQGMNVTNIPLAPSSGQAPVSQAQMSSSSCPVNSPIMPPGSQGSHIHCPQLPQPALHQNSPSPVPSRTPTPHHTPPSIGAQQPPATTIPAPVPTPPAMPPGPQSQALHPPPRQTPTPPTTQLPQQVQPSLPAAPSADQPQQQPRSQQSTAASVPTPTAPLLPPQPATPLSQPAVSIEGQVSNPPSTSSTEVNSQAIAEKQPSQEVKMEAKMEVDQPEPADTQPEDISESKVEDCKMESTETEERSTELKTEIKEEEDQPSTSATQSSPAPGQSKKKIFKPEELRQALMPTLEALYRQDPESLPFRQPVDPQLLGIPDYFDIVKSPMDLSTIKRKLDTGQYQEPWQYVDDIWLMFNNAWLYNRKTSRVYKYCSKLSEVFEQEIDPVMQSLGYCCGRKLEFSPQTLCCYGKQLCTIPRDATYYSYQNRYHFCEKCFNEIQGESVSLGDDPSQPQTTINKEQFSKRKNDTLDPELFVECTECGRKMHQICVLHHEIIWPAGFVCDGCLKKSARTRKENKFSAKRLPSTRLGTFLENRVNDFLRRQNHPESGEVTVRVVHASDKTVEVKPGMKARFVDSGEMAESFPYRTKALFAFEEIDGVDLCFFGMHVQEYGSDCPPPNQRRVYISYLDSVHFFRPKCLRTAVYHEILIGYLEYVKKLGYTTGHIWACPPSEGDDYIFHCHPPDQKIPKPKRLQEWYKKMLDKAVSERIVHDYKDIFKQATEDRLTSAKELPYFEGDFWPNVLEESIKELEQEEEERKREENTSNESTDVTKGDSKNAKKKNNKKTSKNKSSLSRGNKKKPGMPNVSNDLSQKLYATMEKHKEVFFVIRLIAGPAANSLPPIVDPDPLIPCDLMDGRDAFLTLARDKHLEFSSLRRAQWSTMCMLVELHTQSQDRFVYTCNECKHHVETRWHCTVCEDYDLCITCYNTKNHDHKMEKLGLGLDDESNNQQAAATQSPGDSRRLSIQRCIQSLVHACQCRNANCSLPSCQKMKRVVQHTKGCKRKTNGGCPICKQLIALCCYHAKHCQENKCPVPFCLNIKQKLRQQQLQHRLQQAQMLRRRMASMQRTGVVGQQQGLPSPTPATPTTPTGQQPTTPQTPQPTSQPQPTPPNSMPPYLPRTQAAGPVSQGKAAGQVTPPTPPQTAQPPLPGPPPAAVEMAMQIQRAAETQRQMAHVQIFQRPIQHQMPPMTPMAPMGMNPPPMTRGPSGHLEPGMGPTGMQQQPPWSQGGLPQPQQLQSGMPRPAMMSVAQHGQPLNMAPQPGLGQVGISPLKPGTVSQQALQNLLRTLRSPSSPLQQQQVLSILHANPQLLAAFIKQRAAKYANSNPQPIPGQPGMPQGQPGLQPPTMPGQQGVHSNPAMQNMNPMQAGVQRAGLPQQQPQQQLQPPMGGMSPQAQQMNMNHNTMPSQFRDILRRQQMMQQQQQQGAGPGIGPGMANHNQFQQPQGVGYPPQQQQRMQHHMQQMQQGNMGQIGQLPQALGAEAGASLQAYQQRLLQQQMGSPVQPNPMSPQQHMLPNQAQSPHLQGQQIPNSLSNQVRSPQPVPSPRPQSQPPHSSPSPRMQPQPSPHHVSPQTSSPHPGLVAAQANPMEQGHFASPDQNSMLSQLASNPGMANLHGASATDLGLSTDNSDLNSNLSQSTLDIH
Protocol notes: P300 degradation, HiBit technology in A549 P300 HiBit cells (2 h)
Assay type: cell-based
Condition info: A549 P300 HiBit cells, 2 hrs post treatment

Solved entries:
{"Molecule": "CCc1cc(-c2cccc3cc(-c4ccc(C(=O)NCC#Cc5cc(NC6CCC(=O)NC6=O)nn5C)nc4)ncc23)c2cc(C)c(=O)n(C)c2c1 (centres unmarked)", "DC50": "1 to 9.9 nM"}
{"Molecule": "Cn1c(=O)n(C)c2c(F)cc(N3CCOc4nc(-c5ccc(C(=O)NCC#Cc6cc7c(C8CCC(=O)NC8=O)cccc7o6)nc5)ncc43)cc21 (centres unmarked)", "DC50": "10 to 99 nM"}
{"Molecule": "CCN(CC)c1cc2c(cc(C)c(=O)n2C)c(N2CCCc3nc(-c4ccc(C(=O)NCC#Cc5cc6c(C7CCC(=O)NC7=O)nccc6o5)nc4)ncc32)n1 (centres unmarked)", "DC50": "1 to 9.9 nM"}
{"Molecule": "CCn1c(=O)n(C)c2c(N3CCOCC3)nc(-c3cccc4cc(-c5ccc(C(=O)NCC#Cc6cc7c(C8CCC(=O)NC8=O)cccc7o6)nc5)ncc34)cc21 (centres unmarked)", "DC50": "< 1 nM"}
{"Molecule": "Cc1cc(-c2ncc3c(n2)OCCN3c2ccc3c(c2)n(C)c(=O)n3C)cnc1C(=O)NCC#Cc1ccc2occ(C3CCC(=O)NC3=O)c2c1 (centres unmarked) [Example A93]", "DC50": "10 to 99 nM"}
{"Molecule": "Cn1c(=O)n(C)c2cc(-c3cccc4cc(-c5ccc(C(=O)NCC#Cc6cc7c(C8CCC(=O)NC8=O)cccc7o6)nc5)ncc34)ncc21 (centres unmarked)", "DC50": "1 to 9.9 nM"}
{"Molecule": "CC(C)c1cc(-c2cccc3cc(-c4ccc(C(=O)NC/C=C/c5cc(NC6CCC(=O)NC6=O)nn5C)nc4)ncc23)cc2c1n(C)c(=O)n2C (centres unmarked)", "DC50": "1 to 9.9 nM"}
{"Molecule": "Cc1cc2c(N3CCCc4nc(-c5ccc(C(=O)NCC#Cc6ccc7occ(C8CCC(=O)NC8=O)c7c6)nc5)ccc43)cc(C3CCOCC3)cc2n(C)c1=O (centres unmarked)", "DC50": "1 to 9.9 nM"}
{"Molecule": "Cc1cc2c(N3CCCc4cc(-c5ccc(C(=O)NCC#Cc6ccc7occ(C8CCC(=O)NC8=O)c7c6)nc5)c(F)cc43)cc(C(C)C)cc2n(C)c1=O (centres unmarked)", "DC50": "10 to 99 nM"}
{"Molecule": "CC(C)c1cc(-c2cccc3cc(-c4ccc(C(=O)NCC#Cc5cnc6cnn(C7CCC(=O)NC7=O)c6c5)nc4)ncc23)cc2c1n(C)c(=O)n2C (centres unmarked)", "DC50": "1 to 9.9 nM"}

Respectfully, I request DC50 for each entry included below.
1. Cc1cc(-c2ccc(N(C)c3cc(C4CCOCC4)c4c(c3)n(C)c(=O)n4C)cn2)cnc1C(=O)NCC#Cc1cccc(NC2CCC(=O)NC2=O)c1 (centres unmarked)
2. CC(C)c1cc(-c2cccc3cc(-c4ccc(C(=O)NCc5ccc(-c6cnn(C7CCC(=O)NC7=O)c6)cc5)nc4)ncc23)cc2c1n(C)c(=O)n2C (centres unmarked)

1. 1 to 9.9 nM
2. > 1000 nM

Respectfully, I request DC50 for each entry included below.
1. Cc1cc(N2CCN(C)c3cc(-c4ccc(C(=O)NCC#Cc5cc6c(C7CCC(=O)NC7=O)nccc6o5)nc4)ncc32)cc2c1n(C)c(=O)n2C (centres unmarked)
2. Cc1cc2c(N3CCCc4nc(-c5ccc(C(=O)NCC#Cc6cc7c(C8CCC(=O)NC8=O)nccc7o6)nc5)ncc43)cc(C3CCOCC3)cc2n(C)c1=O (centres unmarked)
3. Cc1cc(-c2ccc(N(C)c3cc4c(c(C(C)C)n3)n(C)c(=O)n4C)cn2)cnc1C(=O)NCC#Cc1ccc2occ(C3CCC(=O)NC3=O)c2c1 (centres unmarked)
4. Cc1cc(-c2cc3cccc(-c4cc(C(C)C)c5c(c4)n(C)c(=O)n5C)c3cn2)cnc1C(=O)NCC#Cc1ccc2c(c1)c(C1CCC(=O)NC1=O)nn2C (centres unmarked)
5. CCc1cc(-c2ncc3c(n2)CCCN3c2cc(C3CCOCC3)cc3c2cc(C)c(=O)n3C)cnc1C(=O)NCC#Cc1ccc2occ(C3CCC(=O)NC3=O)c2c1 (centres unmarked)

< 1 nM
< 1 nM
> 1000 nM
1 to 9.9 nM
1 to 9.9 nM

Respectfully, I request DC50 for each entry included below.
1. CC(C)c1cc(-c2cccc3cc(-c4ccc(C(=O)NCC#Cc5cnc6c(c5)N(C5CCC(=O)NC5=O)CC6)nc4)ncc23)cc2c1n(C)c(=O)n2C (centres unmarked)
2. Cc1nc(-c2cnc(N(C)c3cc(C4CCOCC4)c4c(c3)n(C)c(=O)n4C)cn2)cnc1C(=O)NCC#Cc1cc2c(C3CCC(=O)NC3=O)nccc2o1 (centres unmarked)
3. Cc1cc2c(N3CCOc4cc(-c5ccc(C(=O)NCC#Cc6ccc7occ(C8CCC(=O)NC8=O)c7c6)nc5)c(F)cc43)cc(C3CCOCC3)cc2n(C)c1=O (centres unmarked)
4. CC(C)c1cc(-c2cccc3cc(-c4ccc(C(=O)NCC#Cc5ccc6cnn(C7CCC(=O)NC7=O)c6c5)nc4)ncc23)cc2c1n(C)c(=O)n2C (centres unmarked)
5. CC(C)c1nc(N2CCCc3nc(-c4ccc(C(=O)NCC#Cc5ccc6occ(C7CCC(=O)NC7=O)c6c5)nc4)ncc32)cc2c1n(C)c(=O)n2C (centres unmarked)
6. Cc1cc2c(N3CCCc4nc(-c5ccc(C(=O)NCC#Cc6cc7c([C@H]8CCC(=O)NC8=O)cccc7o6)nc5)ncc43)nc(N3CCOCC3)cc2n(C)c1=O

["10 to 99 nM", "1 to 9.9 nM", "1 to 9.9 nM", "1 to 9.9 nM", "> 1000 nM", "< 1 nM"]
